systemName: human OX2R (Homo sapiens)
Construct: host or cells: HEK293T
Sequence (O43614 whole entry): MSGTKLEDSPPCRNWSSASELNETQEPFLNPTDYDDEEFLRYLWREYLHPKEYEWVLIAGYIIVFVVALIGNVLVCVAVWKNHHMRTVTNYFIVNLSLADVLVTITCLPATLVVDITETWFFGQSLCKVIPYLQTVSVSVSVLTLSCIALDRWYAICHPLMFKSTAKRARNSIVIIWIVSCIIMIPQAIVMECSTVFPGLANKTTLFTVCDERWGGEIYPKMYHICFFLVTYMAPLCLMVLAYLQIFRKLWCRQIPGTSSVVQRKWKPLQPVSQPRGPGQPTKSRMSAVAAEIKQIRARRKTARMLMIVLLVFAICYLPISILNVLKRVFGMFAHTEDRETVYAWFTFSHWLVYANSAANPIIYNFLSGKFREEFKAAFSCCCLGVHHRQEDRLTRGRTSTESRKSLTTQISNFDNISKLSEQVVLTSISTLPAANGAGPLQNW
experimentalProtocol: Radioligand displacement binding, human OX2R (HEK293T membranes)
settings: mean ± SEM, at least three experiments in triplicate; HEK293T homogenates, radioligand [^3H]EMPA; read-out: Ki values (nM ± SEM) hOX2R
experimentalEndpoint: log10 Ki (log10 of the value in nM)
Values reflect log10 of reported Ki (nM).

[ask] log10 Ki lookup needed for `Cc1ccc(-n2nccn2)c(C(=O)N2CCCN(c3nc4ccc(F)cc4s3)CC2)c1` , thanks.
[reply] 0.08

* * *

systemName: human OX1R (Homo sapiens, UniProt O43613)
Construct: host or cells: HEK293T
Sequence (O43613 1-425): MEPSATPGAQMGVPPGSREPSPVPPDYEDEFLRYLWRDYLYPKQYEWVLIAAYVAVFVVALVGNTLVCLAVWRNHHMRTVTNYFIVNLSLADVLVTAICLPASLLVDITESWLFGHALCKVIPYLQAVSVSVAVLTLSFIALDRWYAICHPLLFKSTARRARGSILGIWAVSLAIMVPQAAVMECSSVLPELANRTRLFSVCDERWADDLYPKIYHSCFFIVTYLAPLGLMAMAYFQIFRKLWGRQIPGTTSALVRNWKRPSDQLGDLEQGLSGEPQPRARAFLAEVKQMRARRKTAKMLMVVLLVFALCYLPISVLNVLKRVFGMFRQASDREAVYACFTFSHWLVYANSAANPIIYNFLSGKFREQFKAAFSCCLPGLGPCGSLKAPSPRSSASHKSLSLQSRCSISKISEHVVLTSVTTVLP
experimentalProtocol: Radioligand displacement binding, human OX1R (HEK293T membranes)
settings: mean ± SEM, at least three experiments in triplicate; HEK293T membranes, radioligand [^3H]SB974042; read-out: Ki values (nM ± SEM) hOX1R
experimentalEndpoint: Ki (nM)
Expressed in nM, but write only the number.

Worked set:
[ask] For the compound Cc1ccc(-n2nccn2)c(C(=O)N2CCCN(c3cnc4cc(F)ccc4n3)CC2)c1 [1d] , what Ki is on record?
[reply] 1.2

[ask] Recorded Ki for CC[C@H](C)[C@H]1CN(c2nc3cc(F)ccc3o2)CCCN1C(=O)c1cc(C)ccc1-n1nccn1 [1e] , please?
[reply] 1.2

[ask] Any idea what its Ki is? The compound is CC[C@H](C)[C@H]1CN(c2nc3ccc(F)cc3s2)CCCN1C(=O)c1cc(C)ccc1-n1nccn1 [1f]
[reply] 0.69

[ask] What does the data say about its Ki? Entry: Cc1ccc(-n2nccn2)c(C(=O)N2CCCN(c3nc4cc(F)ccc4o3)CC2)c1 [1a]
[reply] 2.5

[ask] Tell me the measured Ki of Cc1ccc(-n2nccn2)c(C(=O)N2CCCN(c3nc4ccc(F)cc4s3)CC2)c1 [1c] , please.
[reply] 0.99

More entries:
[ask] Fill blank: measured Ki of the compound Cc1ccc(-n2nccn2)c(C(=O)N2CCCN(c3nc4cc(F)ccc4s3)CC2)c1 [1b] is ____.
[reply] 1.9
